system: pancreatic ductal adenocarcinoma (Panc-1); experiment: Anti-tumor activity on Panc-1: cell viability by sulforhodamine or MTT assay; format: cell-based; conditions: Homo sapiens, Panc-1 cells, 96 hours treatment, 0.001-1000 nM
pIC50: −log10 of the molar value.
As shown below, each of these compounds has a reported pIC50 value.
ENDPOINT NAME: pIC50

| QUERY SMILES | TARGET OR TEST SYSTEM | TEST RESULT |
| --- | --- | --- |
| COc1ccoc1C(=O)N1CCC(CCCCNC(=O)/C=C/c2cccnc2)CC1 | pancreatic ductal adenocarcinoma (Panc-1) | 8.15 |
| N#C/N=C(\NCCCCC1CCN(C(=O)c2ccco2)CC1)Nc1ccncc1 | pancreatic ductal adenocarcinoma (Panc-1) | 8.17 |
| COc1ccc(C(=O)N2CCC(CCCCNC(=O)/C=C/c3cccnc3)CC2)c(OC)c1 | pancreatic ductal adenocarcinoma (Panc-1) | 8.52 |
